Numbers sourced from patent US20240247080A1.

Target: T1, human neuropeptide Y2 receptor (human, UniProt P49146 1-381)
T1 sequence (looked up): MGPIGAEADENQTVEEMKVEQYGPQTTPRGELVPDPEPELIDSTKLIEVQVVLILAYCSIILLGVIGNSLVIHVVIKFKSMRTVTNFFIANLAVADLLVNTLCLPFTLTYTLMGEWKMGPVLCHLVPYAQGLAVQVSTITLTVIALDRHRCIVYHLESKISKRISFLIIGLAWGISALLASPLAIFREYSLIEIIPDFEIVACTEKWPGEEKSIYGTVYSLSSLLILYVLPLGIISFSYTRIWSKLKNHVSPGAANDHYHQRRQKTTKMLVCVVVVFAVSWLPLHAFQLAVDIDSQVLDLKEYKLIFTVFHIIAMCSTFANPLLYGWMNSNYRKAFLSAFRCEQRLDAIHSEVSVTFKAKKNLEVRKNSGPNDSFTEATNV
Test: cell-based or functional assay
Starred links: 1 amine or outer side, 2 acyl side, 3 side chain; linkers in the order of their positions; H or OH if unused. Non-standard residues stand in square brackets, D forms with d. Groups on a side chain read outwards from the residue. No end group written: not given here. *: point of attachment. C20 diacid = O=C(O)CCCCCCCCCCCCCCCCCCC(=O)*; C18 diacid = O=C(O)CCCCCCCCCCCCCCCCC(=O)*; γGlu = O=C(O)[C@H](CCC(=O)[*:2])N[*:1]; εLys = N[C@@H](CCCCN[*:1])C(=O)[*:2]; AEEA = NCCOCCOCC(=O)O; Aib = CC(C)(N)C(=O)O; Ahx = NCCCCCC(=O)O; OEG = OEG spacer
OBSERVATION TYPE: EC50 hNPY2R 0.5% hP (CreLuc) (nM)
State just the number; it will be interpreted in nM.

Per the records, this binder ( Y[Aib]EGTFTSDYSI[Aib]LEKQAQ[Aib]AFVEWLIK([Ahx-γGlu-γGlu-γGlu-γGlu-γGlu-γGlu-C18 diacid])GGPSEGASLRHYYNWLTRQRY-NH2 (also: TFA salt) [Compound 303] ) has EC50 hNPY2R 0.5% hP (CreLuc) equal to 33.3

Value of measured EC50 hNPY2R 0.5% hP (CreLuc) for the entry Y[Aib]EGTFTSDYSI[Aib]LEKQAE[Aib]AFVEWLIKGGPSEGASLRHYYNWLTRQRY-NH2 (not fully specified (residue 28); also: TFA salt) [Compound 278] : 17.5

For record Y[Aib]EGTFTSDYSI[Aib]LEKQAQ[Aib]AFVEWLIK([OEG-OEG-Glu-Glu-Glu-C18 diacid])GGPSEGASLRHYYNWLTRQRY-NH2 (also: TFA salt) [Compound 298] the listed EC50 hNPY2R 0.5% hP (CreLuc) is 12.1

The recorded EC50 hNPY2R 0.5% hP (CreLuc) for entry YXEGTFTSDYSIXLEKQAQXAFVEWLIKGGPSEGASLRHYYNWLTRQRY (Aib at 2, 13, 20; K28 side chain acylated with C18DA-gGlu-Glu-gGlu-gGlu-gGlu-gGlu-eLys (so in the source); C-terminal amide (NH2)) [Compound 293] equals 13.6

Data point: Y[Aib]EGTFTSDYSI[Aib]LEKQAQ[Aib]AFVEWLIK([AEEA-AEEA-γGlu-γGlu-γGlu-γGlu-C20 diacid])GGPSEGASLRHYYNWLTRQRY-NH2 (also: TFA salt) [Compound 287] ; EC50 hNPY2R 0.5% hP (CreLuc) = 13.3

Entry under test: Y[Aib]EGTFTSDYSI[Aib]LEKQAQ[Aib]AFVQWLIK([γGlu-γGlu-γGlu-γGlu-C18 diacid])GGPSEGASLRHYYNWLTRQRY-NH2 (also: TFA salt) [Compound 268] . Its EC50 hNPY2R 0.5% hP (CreLuc) was 9.86

# EC50 hNPY2R 0.5% hP (CreLuc) (binder: Y[Aib]EGTFTSDYSI[Aib]LEKQAQ[Aib]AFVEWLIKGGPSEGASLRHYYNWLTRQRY-NH2 (not fully specified (residue 28); also: TFA salt) [Compound 296] ) is 14.1

Recorded EC50 hNPY2R 0.5% hP (CreLuc) (binder Y[Aib]EGTFTSDYSI[Aib]LEKQAQ[Aib]EFVEWLIK([γGlu-γGlu-γGlu-γGlu-C20 diacid])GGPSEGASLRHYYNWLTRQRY-NH2 (also: TFA salt) [Compound 271] ): 16.1

Briefly, EC50 hNPY2R 0.5% hP (CreLuc) measured for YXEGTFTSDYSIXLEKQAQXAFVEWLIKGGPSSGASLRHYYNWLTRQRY (Aib at 2, 13, 20; K28 side chain acylated with C18DA-gGlu-gGlu-gGlu-gGlu-gGlu-OEG-OEG; C-terminal amide (NH2)) [Compound 261] : 24.1

For Y[Aib]EGTFTSDYSI[Aib]LEKQAQ[Aib]AFVQWLIK([AEEA-AEEA-γGlu-γGlu-γGlu-γGlu-C20 diacid])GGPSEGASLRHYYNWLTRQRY-NH2 (also: TFA salt) [Compound 269] the binder record lists EC50 hNPY2R 0.5% hP (CreLuc) as 9.56

Note to self: EC50 hNPY2R 0.5% hP (CreLuc) recorded for Y[Aib]EGTFTSDYSI[Aib]LEKQAQ[Aib]EFVEWLIK([γGlu-γGlu-γGlu-γGlu-C18 diacid])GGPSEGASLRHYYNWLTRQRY-NH2 (also: TFA salt) [Compound 276] was 20.7

get_value(item= Y[Aib]EGTFTSDYSI[Aib]LEKQAQ[Aib]AFVEWLIK([εLys-γGlu-γGlu-γGlu-γGlu-γGlu-C18 diacid])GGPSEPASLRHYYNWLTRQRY-NH2 (also: TFA salt) [Compound 263] , readout=EC50 hNPY2R 0.5% hP (CreLuc)) returns 15.8

For record Y[Aib]EGTFTSDYSI[Aib]LEKQAQ[Aib]EFVEWLIK([Ahx-γGlu-γGlu-γGlu-γGlu-γGlu-γGlu-C18 diacid])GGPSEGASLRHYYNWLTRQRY-NH2 (also: TFA salt) [Compound 279] the listed EC50 hNPY2R 0.5% hP (CreLuc) is 32.4

// sample Y[Aib]EGTFTSDYSI[Aib]LEKQAQ[Aib]AFVEWLIK([γGlu-γGlu-γGlu-γGlu-C18 diacid])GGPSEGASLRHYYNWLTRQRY-NH2 (also: TFA salt) [Compound 294] , its EC50 hNPY2R 0.5% hP (CreLuc) was 14.2

Record Y[Aib]EGTFTSDYSI[Aib]LEKQAQ[Aib]AFVQWLIK([Glu-Glu-Glu-Glu-Glu-Glu-C18 diacid])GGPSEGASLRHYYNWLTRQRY-NH2 (also: TFA salt) [Compound 264] . Reported EC50 hNPY2R 0.5% hP (CreLuc): 16.8

Given item Y[Aib]EGTFTSDYSI[Aib]LEKQAQ[Aib]AFVEWLIK([AEEA-γGlu-γGlu-γGlu-C18 diacid])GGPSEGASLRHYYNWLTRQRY-NH2 (also: TFA salt) [Compound 300] , the value recorded as its EC50 hNPY2R 0.5% hP (CreLuc) is 20
